experiment: modulators of CIT2-GFP expression in yeast, confirmation, S. cerevisiae, GFP fusion, cherry picks, mother/daughter gates (AID 2274); settings: S. cerevisiae CIT2-GFP strain, flow cytometry, 3 h; measured here: mother cell gate; at 10 µM; stronger effect = higher value
I'd appreciate it if you could supply GFP response, % of DMSO values for the items below.
One number for each entry, in %.

Before answering, review these 3 worked examples.
{"columns": ["compound", "meas_value"],
 "data": [
  ["N#C/C(=C/c1ccc(N2CCOCC2)o1)c1ccc(Cl)cc1", 96.8],
  ["CCc1noc(C)c1C(=O)Nc1nc(-c2ccc(Cl)cc2Cl)c(C)s1", 94.5],
  ["N#C/C(=C\\c1c(N2CCCCCC2)nc2ccccn2c1=O)C(=O)NCc1ccco1", 96.1]
]}

Count: 5. Required value per item: GFP response, % of DMSO.
1. CC1=NNC(=O)/C1=C\c1cn(-c2ccccc2)nc1-c1ccccc1
2. O=C(Nc1ccc(Cl)cc1Cl)c1cccc(N2C(=O)C=CC2=O)c1
3. CCc1ccc2c(c1)C1(NN=C(c3ccccc3)S1)C(=O)N2 (stereo not drawn)
4. COc1ccc(/C=C2\Sc3ccc(C(=O)N4CCc5ccccc5C4)cc3N(C)C2=O)cc1
5. Cc1occc1-c1nnc(-c2cc([N+](=O)[O-])cc([N+](=O)[O-])c2)o1

Result ::
[104, 80.7, 89.5, 98.5, 81.8]
